These measurements were taken from patent US11279683B2.

test system: H1N1 (influenza A/New Caledonia/20/99); assay: microbe, parasite or virus in culture; format: cell-based; conditions: Influenza A virus, H1N1, A549, 48 h
pIC50: −log10 of the molar value.
Give y when the value for pIC50 is at least 5. Give n when it is less.

Would you please look over these solved cases?
O=C(O)c1ccccc1C(=O)Nc1sc2c(c1C(=O)Nc1ccc(Cl)cc1)CCC2 :: n
O=C(Nc1ccc(Cl)cc1)c1c(NC(=O)C2CCCCC2C(=O)O)sc2c1CSC2 (centres unmarked) :: y
CC(C)(C)c1ccc(NC(=O)c2c(NC(=O)C3CCCCC3C(=O)O)sc3c2CCC3)cc1 (centres unmarked) :: y
O=C(Nc1ccc(-c2ccccc2)cc1)c1c(NC(=O)C2CCCCC2C(=O)O)sc2c1CCC2 (centres unmarked) :: y
NS(=O)(=O)N1CCOC(C(=O)Nc2sc3c(c2C(=O)Nc2ccc(Cl)cc2)CCC3)C1 (centres unmarked) :: y

Asked: Could you tell me if the measured pIC50 of NS(=O)(=O)N1CCC1C(=O)Nc1sc2c(c1C(=O)Nc1ccc(Cl)cc1)CCC2 (centres unmarked) reaches 5 or more?
Given back: n

Asked: Would you say O=C1CC(C(=O)Nc2sc3c(c2C(=O)Nc2ccc(Cl)cc2)CCC3)CCN1 (centres unmarked) shows pIC50 at minimum 5?
Given back: n

Asked: Hi, just wondering whether O=C(NC1CCCCC1)c1c(NC(=O)C2CCCCC2C(=O)O)sc2c1CCC2 (centres unmarked) shows pIC50 of 5 or higher.
Given back: n

Asked: Check the entry O=C(Nc1ncc(Cl)s1)c1c(NC(=O)C2CCCCC2C(=O)O)sc2c1CCC2 (centres unmarked) : does pIC50 equal or exceed 5?
Given back: y

Asked: Please tell me: is the compound O=C(Nc1ccc2c(c1)COC2)c1c(NC(=O)C2CCCCC2C(=O)O)sc2c1CCC2 (centres unmarked) at or over 5 in terms of pIC50?
Given back: n

Asked: Is pIC50 at least 5? Consider O=C(O)C=CC(=O)Nc1sc2c(c1C(=O)Nc1ccc(Cl)cc1)CCC2
Given back: n

Asked: Does the reported pIC50 for CS(=O)(=O)N[C@@H]1CCCC[C@@H]1C(=O)Nc1sc2c(c1C(=O)Nc1ccc(Cl)cc1)CCC2 fall at or above the 5 mark?
Given back: y

Asked: Say whether O=C(O)C1CCCCC1C(=O)Nc1sc2c(c1C(=O)N1CCN(c3ccc(Cl)cc3)CC1)CCC2 (centres unmarked) shows pIC50 of 5 or more.
Given back: n

Asked: Determine whether measured pIC50 meets or exceeds 5 for O=C(Nc1ccc(Cl)cc1)c1c(NC(=O)C2CCCCC2)sc2c1CCC2
Given back: n
